Data origin, for the record: patent US20250242064A1

For each record, write down the corresponding tissue uptake at 3 h.
Assay: in vivo
Design: species or system mice
Settings: male, NOD.Cg-Rag1tm1Mom Il2rgtm1Wjl/SzJ (NRG), mouse, iv, total radioactivity, Biodistribution: Liver
Where a SMILES comes first, the peptide text is derived from it. Bridges are numbered along the chain shown (N, C = ends). [ ]: non-standard residue; d: D form. The star is where a group is joined. X4 = O=C(O)CN1CCN(CC(=O)O)CCN(CC(=O)N[C@@H](CS(=O)(=O)O)C(=O)NCCCC[C@H](NC(=O)CNC(=O)CCCc2ccc(Cl)cc2)C(=O)*)CCN(CC(=O)O)CC1; X3 = O=C(O)CN1CCN(CC(=O)O)CCN(CC(=O)N[C@@H](CS(=O)(=O)O)C(=O)N[C@@H](CCCCNC(=O)CCCc2ccc(Br)cc2)C(=O)*)CCN(CC(=O)O)CC1; X1 = O=C(O)CN1CCN(CC(=O)O)CCN(CC(=O)N[C@@H](CS(=O)(=O)O)C(=O)N[C@@H](CCCCNC(=O)CCCc2ccc(I)cc2)C(=O)*)CCN(CC(=O)O)CC1; 2Nal = N[C@@H](Cc1ccc2ccccc2c1)C(=O)O; Lys(iPr) = CC(C)NCCCC[C@H](N)C(=O)O
Numbers only, in %ID/g.

The examples below pair each entry with its known result.
[[record]]
compound = "CC(C)NCCCC[C@H](NC(=O)[C@H]1CCC(=O)N[C@@H](CCCCNC(=O)[C@H](CCCCNC(=O)[C@H](CS(=O)(=O)O)NC(=O)CN2CCN(CC(=O)O)CCN(CC(=O)O)CCN(CC(=O)O)CC2)NC(=O)CNC(=O)CCCc2ccc(Cl)cc2)C(=O)N[C@@H](Cc2ccc(O)cc2)C(=O)N[C@@H](CCCCNC(C)C)C(=O)N[C@H](CCCNC(=N)N)C(=O)N[C@@H](Cc2ccc3ccccc3c2)C(=O)N[C@H](C)C(=O)N1)C(N)=O [[68Ga]Ga-BL34T1, metal not drawn] (K(X4)Y[Lys(iPr)][dR][2Nal][dA][dE][Lys(iPr)]-NH2; lactam N-7)"
units_of_measure = "%ID/g"
test_value = 3.02

[[record]]
compound = "CC(C)NCCCC[C@H](NC(=O)[C@H]1CCC(=O)N[C@@H](CCCCNC(=O)[C@H](CCCCNC(=O)CCCc2ccc(I)cc2)NC(=O)[C@H](CS(=O)(=O)O)NC(=O)CN2CCN(CC(=O)O)CCN(CC(=O)O)CCN(CC(=O)O)CC2)C(=O)N[C@@H](Cc2ccc(O)cc2)C(=O)N[C@@H](CCCCNC(C)C)C(=O)N[C@H](CCCNC(=N)N)C(=O)N[C@@H](Cc2ccc3ccccc3c2)C(=O)N[C@H](C)C(=O)N1)C(N)=O [[^68Ga]Ga-BL34L11, metal not drawn] (K(X1)Y[Lys(iPr)][dR][2Nal][dA][dE][Lys(iPr)]-NH2; lactam N-7)"
units_of_measure = "%ID/g"
test_value = 3.02


// below: tissue uptake at 3 h requested for another compound
Requested read-out: tissue uptake at 3 h. Entry: CC(C)NCCCC[C@H](NC(=O)[C@H]1CCC(=O)N[C@@H](CCCCNC(=O)[C@H](CCCCNC(=O)CCCc2ccc(Br)cc2)NC(=O)[C@H](CS(=O)(=O)O)NC(=O)CN2CCN(CC(=O)O)CCN(CC(=O)O)CCN(CC(=O)O)CC2)C(=O)N[C@@H](Cc2ccc(O)cc2)C(=O)N[C@@H](CCCCNC(C)C)C(=O)N[C@H](CCCNC(=N)N)C(=O)N[C@@H](Cc2ccc3ccccc3c2)C(=O)N[C@H](C)C(=O)N1)C(N)=O [[^177Lu]Lu-BL34L20, metal not drawn] (K(X3)Y[Lys(iPr)][dR][2Nal][dA][dE][Lys(iPr)]-NH2; lactam N-7) 3.16

====

Assay: in vivo
Parameters: species or system mice
Settings: male, NOD.Cg-Rag1tm1Mom Il2rgtm1Wjl/SzJ (NRG), mouse, iv, total radioactivity, Biodistribution: Pancreas
Where a SMILES comes first, the peptide text is derived from it. Bridges are numbered along the chain shown (N, C = ends). [ ]: non-standard residue; d: D form. The star is where a group is joined. X1 = O=C(O)CN1CCN(CC(=O)O)CCN(CC(=O)N[C@@H](CS(=O)(=O)O)C(=O)N[C@@H](CCCCNC(=O)CCCc2ccc(I)cc2)C(=O)*)CCN(CC(=O)O)CC1; 2Nal = N[C@@H](Cc1ccc2ccccc2c1)C(=O)O; Lys(iPr) = CC(C)NCCCC[C@H](N)C(=O)O
reported property: tissue uptake at 72 h (%ID/g)
One number for each entry, in %ID/g.

Requested read-out: tissue uptake at 72 h. Entry: CC(C)NCCCC[C@H](NC(=O)[C@H]1CCC(=O)N[C@@H](CCCCNC(=O)[C@H](CCCCNC(=O)CCCc2ccc(I)cc2)NC(=O)[C@H](CS(=O)(=O)O)NC(=O)CN2CCN(CC(=O)O)CCN(CC(=O)O)CCN(CC(=O)O)CC2)C(=O)N[C@@H](Cc2ccc(O)cc2)C(=O)N[C@@H](CCCCNC(C)C)C(=O)N[C@H](CCCNC(=N)N)C(=O)N[C@@H](Cc2ccc3ccccc3c2)C(=O)N[C@H](C)C(=O)N1)C(N)=O [[^177Lu]Lu-BL34L11, metal not drawn] (K(X1)Y[Lys(iPr)][dR][2Nal][dA][dE][Lys(iPr)]-NH2; lactam N-7) 0.45

====

Experiment: in vivo
Set-up: species or system mice
Details: male, NOD.Cg-Rag1tm1Mom Il2rgtm1Wjl/SzJ (NRG), mouse, iv, total radioactivity, Ratio Tumor-to-Blood
Where a SMILES comes first, the peptide text is derived from it. Bridges are numbered along the chain shown (N, C = ends). [ ]: non-standard residue; d: D form. The star is where a group is joined. X6 = COc1ccc(CCCC(=O)NCCCC[C@H](NC(=O)[C@H](CS(=O)(=O)O)NC(=O)CN2CCN(CC(=O)O)CCN(CC(=O)O)CCN(CC(=O)O)CC2)C(=O)*)cc1; 2Nal = N[C@@H](Cc1ccc2ccccc2c1)C(=O)O; Lys(iPr) = CC(C)NCCCC[C@H](N)C(=O)O
reported property: tissue to tissue ratio at 1 h
Numbers only.

Requested read-out: tissue to tissue ratio at 1 h. Entry: COc1ccc(CCCC(=O)NCCCC[C@H](NC(=O)[C@H](CS(=O)(=O)O)NC(=O)CN2CCN(CC(=O)O)CCN(CC(=O)O)CCN(CC(=O)O)CC2)C(=O)NCCCC[C@@H]2NC(=O)CC[C@H](C(=O)N[C@@H](CCCCNC(C)C)C(N)=O)NC(=O)[C@@H](C)NC(=O)[C@H](Cc3ccc4ccccc4c3)NC(=O)[C@@H](CCCNC(=N)N)NC(=O)[C@H](CCCCNC(C)C)NC(=O)[C@H](Cc3ccc(O)cc3)NC2=O)cc1 [[^68Ga]Ga-BL34L7, metal not drawn] (K(X6)Y[Lys(iPr)][dR][2Nal][dA][dE][Lys(iPr)]-NH2; lactam N-7) 6.5

====

Assay: in vivo
Parameters: species or system mice
Settings: male, NOD.Cg-Rag1tm1Mom Il2rgtm1Wjl/SzJ (NRG), mouse, iv, total radioactivity, Ratio Tumor-to-Muscle
Where a SMILES comes first, the peptide text is derived from it. Bridges are numbered along the chain shown (N, C = ends). [ ]: non-standard residue; d: D form. The star is where a group is joined. X1 = O=C(O)CN1CCN(CC(=O)O)CCN(CC(=O)N[C@@H](CS(=O)(=O)O)C(=O)N[C@@H](CCCCNC(=O)CCCc2ccc(I)cc2)C(=O)*)CCN(CC(=O)O)CC1; 2Nal = N[C@@H](Cc1ccc2ccccc2c1)C(=O)O; Lys(iPr) = CC(C)NCCCC[C@H](N)C(=O)O
reported property: tissue to tissue ratio at 72 h
One number for each entry.

Requested read-out: tissue to tissue ratio at 72 h. Entry: CC(C)NCCCC[C@H](NC(=O)[C@H]1CCC(=O)N[C@@H](CCCCNC(=O)[C@H](CCCCNC(=O)CCCc2ccc(I)cc2)NC(=O)[C@H](CS(=O)(=O)O)NC(=O)CN2CCN(CC(=O)O)CCN(CC(=O)O)CCN(CC(=O)O)CC2)C(=O)N[C@@H](Cc2ccc(O)cc2)C(=O)N[C@@H](CCCCNC(C)C)C(=O)N[C@H](CCCNC(=N)N)C(=O)N[C@@H](Cc2ccc3ccccc3c2)C(=O)N[C@H](C)C(=O)N1)C(N)=O [[^177Lu]Lu-BL34L11, metal not drawn] (K(X1)Y[Lys(iPr)][dR][2Nal][dA][dE][Lys(iPr)]-NH2; lactam N-7) 91.8
